Experiment: Antiproliferative activity against mouse mammary carcinoma cell after 24 hrs by MTT assay
Type: functional
QUANTITY KIND: IC50 (nM)
Give just the numeric value; nM need not be written.

Here are 3 compounds together with their reported answers.
COMPOUND	QUANTITY KIND	MEASURED NUMBER
COc1cc(/C=C/C(=O)O)ccc1OC/C=C(\C)CCC=C(C)C	IC50	2500
COc1cc(/C=C/C=O)ccc1OCC=C(C)C [BOROPINAL]	IC50	220
CCC#CCOc1ccc2ccc(=O)oc2c1 [7-(2-PENTYNYLOXY)COUMARIN]	IC50	24000

Prompt: For the compound shown here, COc1ccc2[nH]cc(CCNC(C)=O)c2c1 [MELATONIN] , give the reported IC50.
Completion: 200

Prompt: For the compound shown here, COc1cc(/C=C/C(=O)O)ccc1OCC=C(C)C [BOROPINIC ACID] , give the reported IC50.
Completion: 6100

---

Test system: MCF7
Assay: Antiproliferative activity against human MCF7 cells after 24 hrs by MTT assay
Format: functional, cell-based
Conditions: MCF7, 24 h
The entries below come with measured pIC50 values attached.
Answer as the number alone; pIC50 is minus log10 of concentration in mol/L.

O=c1ccc2ccc(O/C=C/c3ccccc3)cc2o1 5.66
O=c1ccc2ccc(O)cc2o1 5.54
CCC#CCOc1ccc2ccc(=O)oc2c1 4.30

Now consider the entry below.
Prompt: For the molecule shown here, `COc1cc(/C=C/C(=O)O)ccc1OCC=C(C)C` , give the reported pIC50.
Completion: 6.15

---

System: BT-549
Assay: Antiproliferative activity against human BT549 cells at 1 nM to 100 uM after 24 hrs by MTT assay relative to control
Format: functional
Details: at 0.001 to 100 µM
Flag rule - Efficacy less than 90% flags condition met; the remaining entries get condition not met.

COMPOUND	CATEGORY
CC(C)=CCOc1ccc2ccc(=O)oc2c1 [7-PRENYLOXYCOUMARIN]	condition not met
CC(C)=CCC/C(C)=C/COc1ccc2ccc(=O)oc2c1	condition met
CCC#CCOc1ccc2ccc(=O)oc2c1 [7-(2-PENTYNYLOXY)COUMARIN]	condition met
COc1cc(/C=C/C(=O)O)ccc1O [FERULATE]	condition not met

Prompt: Identify whether the compound `COc1cc(/C=C/C(=O)O)ccc1OC/C=C(\C)CCC=C(C)C` records Efficacy below 90%.
Completion: condition not met

Prompt: Identify whether the compound COc1cc(/C=C/C=O)ccc1OCC=C(C)C [BOROPINAL] records Efficacy below 90%.
Completion: condition met

---

Target: Melatonin receptor type 1A (Homo sapiens, UniProt P48039)
Sequence (P48039 whole entry): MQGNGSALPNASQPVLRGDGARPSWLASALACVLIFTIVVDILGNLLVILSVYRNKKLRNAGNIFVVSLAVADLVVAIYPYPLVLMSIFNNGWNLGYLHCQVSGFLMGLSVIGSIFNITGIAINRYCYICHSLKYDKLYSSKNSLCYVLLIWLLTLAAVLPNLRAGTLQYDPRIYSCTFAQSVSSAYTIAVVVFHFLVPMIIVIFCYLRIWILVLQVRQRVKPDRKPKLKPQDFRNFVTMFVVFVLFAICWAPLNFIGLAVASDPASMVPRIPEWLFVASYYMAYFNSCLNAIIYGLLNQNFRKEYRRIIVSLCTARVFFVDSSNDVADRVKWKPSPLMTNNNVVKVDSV
QUANTITY KIND: pKi
Answer as the number alone; pKi is minus log10 of concentration in mol/L.

Prompt: For the compound shown here, `O=c1ccc2ccc(O/C=C/c3ccccc3)cc2o1` , give the reported pKi.
Completion: 6.43

---

The entries below come with measured pIC50 values attached.
Test system: BT-549
Assay: Antiproliferative activity against human BT549 cells after 24 hrs by MTT assay
Assay type: functional, cell-based
Details: BT-549, 24 h
Answer as the number alone; pIC50 is minus log10 of concentration in mol/L.

Here are 4 compounds together with their reported answers.
COMPOUND	pIC50
O=c1ccc2ccc(O)cc2o1 [UMBELLIFERONE]	3.00
COc1ccc2[nH]cc(CCNC(C)=O)c2c1 [MELATONIN]	1.52
COc1cc(/C=C/C=O)ccc1OCC=C(C)C [BOROPINAL]	7.35
O=c1ccc2ccc(O/C=C/c3ccccc3)cc2o1	3.85

Prompt: Form: Entry = CCC#CCOc1ccc2ccc(=O)oc2c1 [7-(2-PENTYNYLOXY)COUMARIN] | System = BT-549 | pIC50 = ____
Completion: 4.13

Prompt: Form: Entry = `COc1cc(/C=C/C(=O)O)ccc1OC/C=C(\C)CCC=C(C)C` | System = BT-549 | pIC50 = ____
Completion: 5.25

Prompt: Form: Entry = `CC(C)=CCC/C(C)=C/COc1ccc2ccc(=O)oc2c1` | System = BT-549 | pIC50 = ____
Completion: 4.62
